target_or_test_system: HLA-B*40:01
procedure_details: IEDB peptide-MHC binding, purified MHC/direct/fluorescence; filed as Kd, often an IC50 or EC50 that approximates it; bounds were set here for any values at or beyond the usual limits of such assays
applied_conditions: source organism: Giardia lamblia ATCC 50803
readout_label: pKd
One number for each entry, as −log10 of the molar value.

Prompt: Endpoint output: pKd of ARADGILRF . Value?
Completion: 5.50

====

target_or_test_system: HLA-A*23:01
procedure_details: IEDB peptide-MHC binding, purified MHC/competitive/radioactivity; filed as Kd, often an IC50 or EC50 that approximates it; bounds were set here for any values at or beyond the usual limits of such assays
applied_conditions: source organism: Mammarenavirus machupoense
readout_label: Kd (µM)
Answers are plain numbers, in µM.

Prompt: Entry VDICFWSTI has what Kd?
Completion: 12.5
